System: UACC-257 melanoma
Test: NCI-60 one-dose screen, 48 h (100 = growth as untreated, 0 = no growth, -100 = all killed)
Settings: 10 µM unless noted
Experimental: Cells are grown in 96 well plates and exposed to the test compound for 48 hours. Compounds are tested at a single concentration, which is 10^-5 M for most compounds. The reported endpoint is percent growth (GI% or GIPRCNT), where numbers from 0 - 100% represent growth inhibition, and numbers from -100% - 0 represent cell death. For example, a value of 40 represents 60% growth inhibition. A value of 0 means no net growth occurred over the course of the experiment. […]
About 83,000 compounds went through this panel and 20% of them were active in at least one assay; those are over-represented in the sample as a whole. The source made the active and inactive calls. Rule for the calls: active = growth percent below 10; inactive = the rest.
List of growth values.

Below are worked cases with known answers.
| sample.smiles | growth |
| --- | --- |
| C=C1C(=O)O[C@H]2[C@H]1CC/C(COC(=O)Nc1nc3ccccc3[nH]1)=C\CC[C@@]1(C)O[C@@H]21 | 76.2% (inactive) |
| Cc1cccc(C)c1NCc1nnc(-c2ccc(O)cc2)o1 | 111% (inactive) |

Now consider the entry below.
Check the records and state growth for Cc1cccc2nc3c(n12)C(=O)C(=O)c1ccccc1-3
49.5% (inactive)

Where do the numbers come from? From PubChem BioAssay (NCI).
